These measurements were taken from patent US20060008846A1.

Molecular target: T1, ALK4 (activin type I receptor) (UniProt P36896)
T1 sequence (looked up): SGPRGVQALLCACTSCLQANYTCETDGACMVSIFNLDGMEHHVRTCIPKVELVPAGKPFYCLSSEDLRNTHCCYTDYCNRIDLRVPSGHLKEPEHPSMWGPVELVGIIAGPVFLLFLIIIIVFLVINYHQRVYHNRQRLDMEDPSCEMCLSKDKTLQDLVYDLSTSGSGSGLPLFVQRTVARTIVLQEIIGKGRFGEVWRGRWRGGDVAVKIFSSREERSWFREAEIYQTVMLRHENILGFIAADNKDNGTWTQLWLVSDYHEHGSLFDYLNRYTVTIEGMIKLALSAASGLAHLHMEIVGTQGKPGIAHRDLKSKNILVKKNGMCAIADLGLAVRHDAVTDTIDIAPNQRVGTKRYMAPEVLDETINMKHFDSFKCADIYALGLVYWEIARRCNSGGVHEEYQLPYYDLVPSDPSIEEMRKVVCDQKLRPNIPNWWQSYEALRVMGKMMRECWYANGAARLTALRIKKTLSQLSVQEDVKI
Experiment: cell-based or functional assay
Hi there, I'd appreciate the recorded % Activin Activity (A3-luciferase assay in 293T cells) (% of wild type activin-A) for every entry that follows.
The answer should be written as a number, with no unit following it.

Entry activin-A M91A (ligand, human, UniProt P08476 311-426, looked up) GLECDGKVNICCKKQFFVSFKDIGWNDWIIAPSGYHANYCEGECPSHIAGTSGSSLSFHSTVINHYRMRGHSPFANLKSCCVPTKLRPMSALYYDDGQNIIKKDIQNMIVEECGCS — recorded % Activin Activity (A3-luciferase assay in 293T cells) (% of wild type activin-A) = 74

So for activin-A N76A/L77A/K78A/S79A (ligand, human, UniProt P08476 311-426, looked up) GLECDGKVNICCKKQFFVSFKDIGWNDWIIAPSGYHANYCEGECPSHIAGTSGSSLSFHSTVINHYRMRGHSPFAAAAACCVPTKLRPMSMLYYDDGQNIIKKDIQNMIVEECGCS , the logged % Activin Activity (A3-luciferase assay in 293T cells) (% of wild type activin-A) turned out to be 82

Form: binder = activin-A S57A (ligand, human, UniProt P08476 311-426, looked up) GLECDGKVNICCKKQFFVSFKDIGWNDWIIAPSGYHANYCEGECPSHIAGTSGSSLAFHSTVINHYRMRGHSPFANLKSCCVPTKLRPMSMLYYDDGQNIIKKDIQNMIVEECGCS ; % Activin Activity (A3-luciferase assay in 293T cells) (% of wild type activin-A) = 101

Lab note: activin-A A49G (ligand, human, UniProt P08476 311-426, looked up) GLECDGKVNICCKKQFFVSFKDIGWNDWIIAPSGYHANYCEGECPSHIGGTSGSSLSFHSTVINHYRMRGHSPFANLKSCCVPTKLRPMSMLYYDDGQNIIKKDIQNMIVEECGCS gave % Activin Activity (A3-luciferase assay in 293T cells) (% of wild type activin-A) of 82

Form: binder = A/C-2.1 chimeric activin A/activin C protein (ligand, human, UniProt P08476 311-426, looked up) GLECDGKVNICCKKQFFVSFKDIGWNDWIIAPSGYHANYCEGECPSHIAGTSGSSLSFHTAVLNHYRMRGHSPFANLKSCCVPTKLRPMSMLYYDDGQNIIKKDIQNMIVEECGCS ; % Activin Activity (A3-luciferase assay in 293T cells) (% of wild type activin-A) = 81

Quick note, % Activin Activity (A3-luciferase assay in 293T cells) (% of wild type activin-A) for A/C-2.2 chimeric activin A/activin C protein (ligand, human, UniProt P08476 311-426, looked up) GLECDGKVNICCKKQFFVSFKDIGWNDWIIAPSGYHANYCEGECPSHIAGTSGSSLSFHSTVLNLLKMRGHSPFANLKSCCVPTKLRPMSMLYYDDGQNIIKKDIQNMIVEECGCS landed at 107

So for activin-A S57P (ligand, human, UniProt P08476 311-426, looked up) GLECDGKVNICCKKQFFVSFKDIGWNDWIIAPSGYHANYCEGECPSHIAGTSGSSLPFHSTVINHYRMRGHSPFANLKSCCVPTKLRPMSMLYYDDGQNIIKKDIQNMIVEECGCS , the logged % Activin Activity (A3-luciferase assay in 293T cells) (% of wild type activin-A) turned out to be 83

Per the record, activin-A L92A (ligand, human, UniProt P08476 311-426, looked up) GLECDGKVNICCKKQFFVSFKDIGWNDWIIAPSGYHANYCEGECPSHIAGTSGSSLSFHSTVINHYRMRGHSPFANLKSCCVPTKLRPMSMAYYDDGQNIIKKDIQNMIVEECGCS has % Activin Activity (A3-luciferase assay in 293T cells) (% of wild type activin-A) of 35

The value of % Activin Activity (A3-luciferase assay in 293T cells) (% of wild type activin-A) measured for the binder activin-A W25A (ligand, human, UniProt P08476 311-426, looked up) GLECDGKVNICCKKQFFVSFKDIGANDWIIAPSGYHANYCEGECPSHIAGTSGSSLSFHSTVINHYRMRGHSPFANLKSCCVPTKLRPMSMLYYDDGQNIIKKDIQNMIVEECGCS turned out to be 73

The value of % Activin Activity (A3-luciferase assay in 293T cells) (% of wild type activin-A) measured for the binder activin-A G50A/T51A (ligand, human, UniProt P08476 311-426, looked up) GLECDGKVNICCKKQFFVSFKDIGWNDWIIAPSGYHANYCEGECPSHIAAASGSSLSFHSTVINHYRMRGHSPFANLKSCCVPTKLRPMSMLYYDDGQNIIKKDIQNMIVEECGCS turned out to be 83

binder activin-A S52A/G53A/S54A (ligand, human, UniProt P08476 311-426, looked up) GLECDGKVNICCKKQFFVSFKDIGWNDWIIAPSGYHANYCEGECPSHIAGTAAASLSFHSTVINHYRMRGHSPFANLKSCCVPTKLRPMSMLYYDDGQNIIKKDIQNMIVEECGCS , % Activin Activity (A3-luciferase assay in 293T cells) (% of wild type activin-A) observed: 99

Lookup result for activin-A R69A/G70A/H71A (ligand, human, UniProt P08476 311-426, looked up) GLECDGKVNICCKKQFFVSFKDIGWNDWIIAPSGYHANYCEGECPSHIAGTSGSSLSFHSTVINHYRMAAASPFANLKSCCVPTKLRPMSMLYYDDGQNIIKKDIQNMIVEECGCS ; measured % Activin Activity (A3-luciferase assay in 293T cells) (% of wild type activin-A): 82

activin-A S90A (ligand, human, UniProt P08476 311-426, looked up) GLECDGKVNICCKKQFFVSFKDIGWNDWIIAPSGYHANYCEGECPSHIAGTSGSSLSFHSTVINHYRMRGHSPFANLKSCCVPTKLRPMAMLYYDDGQNIIKKDIQNMIVEECGCS has a reported % Activin Activity (A3-luciferase assay in 293T cells) (% of wild type activin-A) of 59

response.value for activin-A F58A/H59A (ligand, human, UniProt P08476 311-426, looked up) GLECDGKVNICCKKQFFVSFKDIGWNDWIIAPSGYHANYCEGECPSHIAGTSGSSLSAASTVINHYRMRGHSPFANLKSCCVPTKLRPMSMLYYDDGQNIIKKDIQNMIVEECGCS (field: % Activin Activity (A3-luciferase assay in 293T cells) (% of wild type activin-A)) = 126
